Below are Kd values for Galectin-7 (Homo sapiens) collected from several publications.
measured_attribute: Kd (µM)

INSERT INTO assay_data (given_smiles, assay_target, obs_value) VALUES
  ('CCCc1cn([C@H]2[C@@H](O)[C@@H](CO)O[C@@H](SC)[C@@H]2O)nn1', 'Galectin-7 (Homo sapiens)', 2200),
  ('O=C(O[C@H]1[C@@H](O)[C@@H](CO)O[C@@H](S[C@@H]2O[C@H](CO)[C@H](O)[C@H](OC(=O)c3cccc4ccccc34)[C@H]2O)[C@@H]1O)c1cccc2ccccc12', 'Galectin-7 (Homo sapiens)', 24),
  ('COc1cccc(C(=O)O[C@H]2[C@@H](O)[C@@H](CO)O[C@@H](S[C@@H]3O[C@H](CO)[C@H](O)[C@H](OC(=O)c4cccc(OC)c4)[C@H]3O)[C@@H]2O)c1', 'Galectin-7 (Homo sapiens)', 22),
  ('O=C(O)c1ccc2nc(CO[C@@H]3[C@@H](O)[C@@H](Sc4ccc(Cl)c(Cl)c4)O[C@H](CO)[C@@H]3O)[nH]c2c1', 'Galectin-7 (Homo sapiens)', 43),
  ('COc1ccc(-c2cn([C@H]3[C@@H](O)[C@@H](CO)O[C@@H](SC)[C@@H]3O)nn2)cc1', 'Galectin-7 (Homo sapiens)', 2000),
  ('COCCNC(=O)c1cn([C@H]2[C@@H](O)[C@@H](CO)O[C@@H](S[C@@H]3O[C@H](CO)[C@H](O)[C@H](n4cc(C(=O)NCCOC)nn4)[C@H]3O)[C@@H]2O)nn1', 'Galectin-7 (Homo sapiens)', 4.7);
